System: A549/ATCC
Assay: NCI-60 screen (SRB), non-small cell lung cancer
Settings: Homo sapiens, A549
Please respond with reported IC50 for every item in the list.
Only the number, expressed in µM, is required.

Value of IC50 reported for the compound COc1cc(OC)c(S(=O)(=O)N(CCCl)CCCl)cc1C(=O)/C=C/c1cc(OC)c(OC)c(OC)c1 [Compound 18e] is 3.11

Value of IC50 reported for the compound COc1cc(OC)c(S(N)(=O)=O)cc1C(=O)/C=C/c1ccc(C)cc1 [Compound 17c] is 2.75

Value of IC50 reported for the compound COc1cc(OC)c(S(N)(=O)=O)cc1C(=O)C=Cc1ccccc1 [Compound 17a] is 10.5

Value of IC50 reported for the compound COc1cc(OC)c(S(N)(=O)=O)cc1C(=O)/C=C/c1ccc(Cl)cc1 [Compound 17b] is 3.17

Values from paper PMC9604400
